zone of inhibition at 1000 µg/mL values, listed per item
Test system: Klebsiella pneumoniae
method-description: Antibacterial activity against Klebsiella pneumoniae ATCC 13883 assessed as growth inhibition at 1 mg/mL after 24 hrs by agar well diffusion assay
Format: functional
condition-parameters: ATCC 13883, 24 h, read-out: DIZ
Unit mm implied. Number only.

Use the examples below as a reference point.
| test-smiles | value-measured |
| --- | --- |
| C/C(=N\NC(=S)Nc1ccc(C(=O)NCC(=O)O)cc1)c1ccccc1 | 18 |
| O=C(O)CNC(=O)c1ccc(NC(=S)N/N=C/c2cccc(Br)c2)cc1 | 9 |
| O=C(O)CNC(=O)c1ccc(NC(=S)NN=C2CCCCC2)cc1 | 0 |

Ask | Give zone of inhibition at 1000 µg/mL for the following compound: O=C(O)CNC(=O)c1ccc(NC(=S)N/N=C2/CC(=O)c3ccccc32)cc1
Reply | 0

Ask | Give zone of inhibition at 1000 µg/mL for the following compound: Cc1ccc(/C=N/NC(=S)Nc2ccc(C(=O)NCC(=O)O)cc2)cc1
Reply | 0

Ask | Give zone of inhibition at 1000 µg/mL for the following compound: C/C(=N\NC(=S)Nc1ccc(C(=O)NCC(=O)O)cc1)c1ccc(C)cc1
Reply | 22

Ask | Give zone of inhibition at 1000 µg/mL for the following compound: C/C(=N\NC(=S)Nc1ccc(C(=O)NCC(=O)O)cc1)c1ccc(Br)cc1
Reply | 19

Ask | Give zone of inhibition at 1000 µg/mL for the following compound: O=C(O)CNC(=O)c1ccc(NC(=S)N/N=C/c2ccc([N+](=O)[O-])cc2)cc1
Reply | 0

Ask | Give zone of inhibition at 1000 µg/mL for the following compound: C/C(=N\NC(=S)Nc1ccc(C(=O)NCC(=O)O)cc1)c1ccc(Cl)cc1
Reply | 0

Ask | Give zone of inhibition at 1000 µg/mL for the following compound: O=C(O)CNC(=O)c1ccc(NC(=S)N/N=C/c2ccc(F)cc2)cc1
Reply | 30

Ask | Give zone of inhibition at 1000 µg/mL for the following compound: O=C(O)CNC(=O)c1ccc(NC(=S)NN=C(c2ccccc2)c2ccccc2)cc1
Reply | 0

Ask | Give zone of inhibition at 1000 µg/mL for the following compound: O=C(O)CNC(=O)c1ccc(NC(=S)N/N=C2/CCc3ccccc32)cc1
Reply | 28

====

Test system: Bacillus spizizenii
method-description: Antibacterial activity against Bacillus subtilis ATCC 6633 assessed as growth inhibition at 1 mg/mL after 24 hrs by agar well diffusion assay
Format: functional
condition-parameters: ATCC 6633, 24 h, read-out: DIZ
assay-metric: zone of inhibition at 1000 µg/mL (mm)
Unit mm implied. Number only.

Use the examples below as a reference point.
| test-smiles | zone of inhibition at 1000 µg/mL, mm |
| --- | --- |
| O=C(O)CNC(=O)c1ccc(NC(=S)NN=C2CCCCC2)cc1 | 0 |
| O=C(O)CNC(=O)c1ccc(NC(=S)N/N=C/c2cccc(Br)c2)cc1 | 13 |
| O=C(O)CNC(=O)c1ccc(NC(=S)N/N=C2/CC(=O)c3ccccc32)cc1 | 9 |
| O=C(O)CNC(=O)c1ccc(NC(=S)N/N=C/c2ccc([N+](=O)[O-])cc2)cc1 | 15 |
| C/C(=N\NC(=S)Nc1ccc(C(=O)NCC(=O)O)cc1)c1ccc(C)cc1 | 19 |
| O=C(O)CNC(=O)c1ccc(NC(=S)NN=C(c2ccccc2)c2ccccc2)cc1 | 20 |

Ask | Give zone of inhibition at 1000 µg/mL for the following compound: O=C(O)CNC(=O)c1ccc(NC(=S)N/N=C2/CCc3ccccc32)cc1
Reply | 18

====

Test system: Micrococcus luteus
method-description: Antibacterial activity against Sarcina luteus assessed as growth inhibition at 1 mg/mL after 24 hrs by agar well diffusion assay
Assay type: functional
condition-parameters: read-out: DIZ
zone of inhibition at 1000 µg/mL values, listed per item
In your response, put the unit directly after the numeric value.

| test-smiles | value-measured |
| --- | --- |
| O=C(O)CNC(=O)c1ccc(NC(=S)N/N=C/c2cccc(Br)c2)cc1 | 18 mm |
| C/C(=N\NC(=S)Nc1ccc(C(=O)NCC(=O)O)cc1)c1ccccc1 | 25 mm |
| O=C(O)CNC(=O)c1ccc(NC(=S)N/N=C/c2ccc([N+](=O)[O-])cc2)cc1 | 0 mm |
| O=C(O)CNC(=O)c1ccc(NC(=S)NN=C2CCCCC2)cc1 | 24 mm |
| O=C(O)CNC(=O)c1ccc(NC(=S)N/N=C/c2ccc(F)cc2)cc1 | 28 mm |
| O=C(O)CNC(=O)c1ccc(NC(=S)N/N=C2/CC(=O)c3ccccc32)cc1 | 24 mm |
| C/C(=N\NC(=S)Nc1ccc(C(=O)NCC(=O)O)cc1)c1ccc(Cl)cc1 | 0 mm |
| Cc1ccc(/C=N/NC(=S)Nc2ccc(C(=O)NCC(=O)O)cc2)cc1 | 24 mm |

Ask | Give zone of inhibition at 1000 µg/mL for the following molecule: O=C(O)CNC(=O)c1ccc(NC(=S)NN=C(c2ccccc2)c2ccccc2)cc1
Reply | 0 mm

Ask | Give zone of inhibition at 1000 µg/mL for the following molecule: C/C(=N\NC(=S)Nc1ccc(C(=O)NCC(=O)O)cc1)c1ccc(C)cc1
Reply | 25 mm

Ask | Give zone of inhibition at 1000 µg/mL for the following molecule: C/C(=N\NC(=S)Nc1ccc(C(=O)NCC(=O)O)cc1)c1ccc(Br)cc1
Reply | 25 mm

Ask | Give zone of inhibition at 1000 µg/mL for the following molecule: O=C(O)CNC(=O)c1ccc(NC(=S)N/N=C2/CCc3ccccc32)cc1
Reply | 25 mm

====

zone of inhibition at 1000 µg/mL values, listed per item
Test system: Bacillus spizizenii
method-description: Antibacterial activity against Bacillus subtilis ATCC 6633 assessed as growth inhibition at 1 mg/mL after 24 hrs by agar well diffusion assay
Format: functional
condition-parameters: ATCC 6633, 24 h, read-out: DIZ
Unit mm implied. Number only.

Use the examples below as a reference point.
| test-smiles | zone of inhibition at 1000 µg/mL / mm |
| --- | --- |
| C/C(=N\NC(=S)Nc1ccc(C(=O)NCC(=O)O)cc1)c1ccc(Br)cc1 | 15 |
| C/C(=N\NC(=S)Nc1ccc(C(=O)NCC(=O)O)cc1)c1ccc(Cl)cc1 | 15 |
| Cc1ccc(/C=N/NC(=S)Nc2ccc(C(=O)NCC(=O)O)cc2)cc1 | 0 |
| C/C(=N\NC(=S)Nc1ccc(C(=O)NCC(=O)O)cc1)c1ccccc1 | 14 |

# input for lookup
Ask | Give zone of inhibition at 1000 µg/mL for the following compound: O=C(O)CNC(=O)c1ccc(NC(=S)N/N=C/c2ccc(F)cc2)cc1
Reply | 20
